Ref: ChEMBL document CHEMBL1201862

As shown below, each of these molecules has a reported GI50 value.
test system: DLD-1; assay: NCI tumour cell line growth inhibition, 48 h
Active and inactive are the calls of the source. Cut-off read from the data, not from the text of the source: active = GI50 up to about 1.1 µM and inactive = higher.
Readout Type: GI50

INSERT INTO measurements (molecule, readout_type, obs_value) VALUES
  ('COc1cc2c(cc1OC)[C@H]1C(COC(=O)Nc3ccccc3)CN1CC2 (stereo partly specified)', 'GI50', '> 100 µM (inactive)'),
  ('CN(C)CCNC(=O)c1cccc2nc(-c3ccccc3)oc12', 'GI50', '31.9 µM (inactive)'),
  ('C/C(=N\N=C(/S)N(C)C)c1cccc[n+]1[O-]', 'GI50', '2.18 µM (inactive)'),
  ('O=C(NC(Cc1ccccc1)C(=O)CCl)OCc1ccccc1 (stereo unspecified)', 'GI50', '9.64 µM (inactive)'),
  ('CCC(C)n1c(C)nc2c1C(=O)c1ccccc1C2=O (stereo unspecified)', 'GI50', '27.2 µM (inactive)'),
  ('CN1CN(C(=O)N2CN(C)C(=O)N(C)C2)CN(C)C1=O', 'GI50', '> 100 µM (inactive)');

====

system: OVCAR-8; assay: NCI tumour cell line growth inhibition, 48 h
The source made the active and inactive calls. Cut-off read from the data, not from the text of the source: active = GI50 up to about 1.1 µM and inactive = higher.
Outcome codes: class 1 = active, class 0 = inactive

INSERT INTO results (compound, category_label) VALUES
  ('Cc1ccc2c(O)cc(-c3cccs3)nc2n1', 'class 0'),
  ('O=C(c1ccc(Cl)cc1)N(C(=O)N1CCCCC1)c1ccccc1', 'class 0'),
  ('CC(C)OP(=O)(OC(C)C)C(C(F)(F)F)C(F)(F)F', 'class 0'),
  ('c1ccc2c(c1)NC(C1OC3CCCN3C1C1Nc3ccccc3S1)S2 (stereo not given)', 'class 0'),
  ('COc1ccc2c(c1)OC(c1cccnc1)C(c1ccccc1)C2=O (stereo not given)', 'class 0'),
  ('CNC(=S)c1nnsc1N', 'class 0'),
  ('CC(=O)[C@]1(O)Cc2c(O)c3c(c(O)c2C(OC2OC(C)C(O)C(O)C2F)C1)C(=O)c1ccccc1C3=O (stereo not given in full)', 'class 1'),
  ('C[n+]1cccc(/C=C/c2ccc3cccc(O)c3n2)c1', 'class 0'),
  ('CC(C)C(Sc1nc(-c2ccccc2)c(-c2ccccc2)[nH]1)C(=O)N/N=C/c1ccc(Cl)cc1 (stereo not given)', 'class 0'),
  ('COC1OC(COC(=O)c2cc(O)c(O)c(O)c2)C(OC(=O)c2cc(O)c(O)c(O)c2)C(OC(=O)c2cc(O)c(O)c(O)c2)C1OC(=O)c1cc(O)c(O)c(O)c1 (stereo not given)', 'class 0');

====

tested on: HOP-62; assay: NCI tumour cell line growth inhibition, 48 h
Active and inactive are the calls of the source. No stated cut-off is given here; in the data, active = GI50 up to about 1.1 µM and inactive = higher.
Readout Type: GI50

INSERT INTO results (compound, obs_value) VALUES
  ('O=C1c2ccccc2-c2nc(/C=C/c3ccccc3)cc3c2c1nc1ccccc13', '16.3 µM (inactive)'),
  ('C=C(CCC/C(C)=C/C=C/[C@H](C)CCCc1ccoc1)C[C@@H]1OC(=O)[C@H](C)[C@@H]1O', '8.63 µM (inactive)'),
  ('COC(=O)C(C(=O)C(=O)Nc1ccc(OC)cc1[N+](=O)[O-])c1nc2cc(C)c(C)cc2nc1O (centres undefined)', '> 100 µM (inactive)'),
  ('O=C1OCC2OC(=O)c3cc(O)c(O)c(O)c3-c3c(O)c(O)c(O)c4c3C(=O)OC(C2OC(=O)c2cc(O)c(O)c(O)c2-c2c1cc(O)c(O)c2O)C1OC(=O)c2c-4c(O)c(O)c(O)c2[C@@H]1C(O)C(O)C(O)C(O)CO (some centres undefined)', '17.9 µM (inactive)');
